system: biofilm-producing Staphylococcus epidermidis strains; assay: Biofilm eradication (MBEC Assay Kit); format: cell-based; settings: clinical strain 21 (Table S4)
List of MBEC values.
Expressed in µg/mL, but write only the number.

>>> print(df.to_string())
                                   compound  readout_kind  value_units  quantitative_readout
0  O=C(Nc1cccc(Cl)c1)NC1CCN(CCC(Oc2ccc(C(F)(F)F)cc2)c2cccs2)CC1 (stereo not shown) [Compound 25]          MBEC        µg/mL                 31.25
1  CC(=O)NC[C@H]1CN(c2ccc(N3CCOCC3)c(F)c2)C(=O)O1 [linezolid, reference compound]          MBEC        µg/mL                    50
2  O=S(=O)(NC1CCN(CCC(Oc2ccc(C(F)(F)F)cc2)c2cccs2)CC1)c1cccc(Cl)c1 (stereo not shown) [Compound 14]          MBEC        µg/mL                   125

As a next step, examine the compound that follows.
Value of MBEC reported for the compound O=S(=O)(NC1CCN(CCC(Oc2ccc(C(F)(F)F)cc2)c2ccccc2)CC1)c1cccc(Cl)c1 (stereo not shown) [Compound 12] is 125
